The values you see were collected from the DeepSol protein solubility set.

experiment: soluble on expression in E. coli; label from the status in PepcDB or PDB records

# monomerSequence, soluble on expression in E. coli
measured = [
    ("MWSEYSLEVVDAVARNGSFSAAAQELHRVPSAVSYTVRQLEEWLAVPLFERRHRDVELTPAGVWFLQEGRSVIKKMQITRQQCQQIANGWRGQLSIAVDDIVKPARMRQMIVDFYRHFPDVELIVFQEVFNGVWDALADGRVELAIGATRSIPVGGRYAFRDMGMLSWDCVVASDHPLAKMEGPLSDDVLRNWPSLVREDTSRSLPKRTTWLLDNQKRVVVPDWESSATCLSAGLCVGMVPSHFARPWIDRGEWTALALENPFPDAACCLTWQQNDASPALNWMLDYLGDSDTLNREWLRAPERSAPARCLNDDNRQTGHPLPSGAQPDGGALR", "not soluble"),
    ("MSDPKPTRSQGDLAEMLEMLLDKGVVINADIAVSVGDTELLGIQLRAAVASFETAAQYGLEFPTGTDMKRVETAAGVSSDASDANSETQPETEPARETTDEHSAVSSPSSREE", "not soluble"),
]

----------
test: soluble on expression in E. coli; label from the status in PepcDB or PDB records
measuredEndpoint: soluble on expression in E. coli

# monomerSequence, reportedMeasurement
rows = [
    ("MLRPKEACQRLGISYATLREYVKKGYIKPVILQSGKQRFGEEDVERLMGIIRKRKVILYARVSSSTQKDELVNQVKYLEEQVKEYDLVITDIGSGLNMKRKGFLKLLRMILNNEVSRVVVAYPDRLVRVGFEILEEVCKAHNCEIVVLNQEDKEEELVEDLMSALVSFSGKLYGMRSHEYEKVKKCAEELKNWKI", "not soluble"),
    ("MGSDKIHHHHHHMSFFPGPDPLAGDKPACDAIEHLIIPRTSDIGGLQVRRALPTAKRRLVGPFIFFDRMGPALLRAGQAIDVRPHPHIGLSTVTYLFDGEIKHRDSLGTEMVIRPGDVNLMTAGRGIVHSERSPENQRGHERSLSGLQTWLALPDAMEEIDPVFAHTEERMLPHLADGGVRARVVIGQFEGAASPVSTFTDTIYVDLMIEPGKSAPFAANWEERALYILSGEAIIAGDHFDNNQLLVFRPGDEITITAGPAGCHVMLFGGAALGSPRHIWWNFVSSSKERIDKAKEEWRTGRFDIVPGDEEEFIPLPAS", "not soluble"),
    ("METRRDERIGRLAQALKKTDKLHLKDAAQLLGVSEMTVRRDLNADSTSVMLLGGYVVSDLKNNGVTNYFVSDQQTKHVREKQAIGTAAAYLVEANDTVFFDCGTTIPFIIDAIPDELLFTAICYSLNTFLALQEKKACRVILCGGEYHPDNAIFTPLNQRCELDNICPNKAFISAAGIELNAGATCFNFAELGMKQRAMATAQRIIIVADNSKFGQIKRACIGPMTLFDTVISDSAPSEPYLRYFSNNGIQLIHPGNLEHHHHHH", "soluble"),
    ("APVNWGPGETNDSTTVEPVLDGPYQPTTFNPPVDYWMLLAPTAAGVVVEGTNNTDRWLATILVEPNVTSETRSYTLFGTQEQITIANASQTQWKFIDVVKTTQNGSYSQYGPLQSTPKLYAVMKHNGKIYTYNGETPNVTTKYYSTTNYDSVNMTAFCDFYIIPREEESTCTEYINNGLPPIQNTR", "soluble"),
    ("ELISRYPERYCRASSGRCTFAFHPAPEKSFNRGFTNLLLSGKRDTNTLITPESNKSKGAYIGCVTAVNRDKVSIRLRPDNTGAKPSLANGDGLYLLHPDGNMSGTRINVVLPDGSIQVDNPAGIVSGTNVFRNYDIRFEKALSQDNSAVRLIPVSLTLTDVPDGFSLSIEADCYPSAKATITAAHEPATRFDEEQIRKNLTKLGGTPLEAVSVDIRLSHDYFIPLSLIGRLRRDAVQSFIEKASSMPEREEKPVVQRRISPAASSLQEGEQSLSFLANVANKEAETFYRQMGYTSIAPAFEHSHPQGVPLMFSKHCLRYHLGYCPTLQHKESPYREPYYLIHGETRLRLRFDCQHCQMLVYHDSEGIKQT", "not soluble"),
    ("MSLEYQWGFANISMNYLDWTRSTTHKSGDSSHKDDFAYIELEGGAGYSWGEMYGFFDLENPFNSKTAQPGDNQRYTFKTTGRYYLGDSGFNLYGHIYGTYSLPSAEGNDYSNFHEVNTLYGIGYNATVAGVWMKPFVALHYVDQTYYSGNNGYVVGWVAGYDFTAFDENFSITNWNELEFNRAERYAAGNGGRNGVNGALALWWTPIKQFTTGIQYRYAYNKLGEDFLQDGIVYSIKYNFEGHHHHHH", "not soluble"),
    ("MGSDKIHHHHHHMETWRFIDSGDRDPAYNMALDEALLNWHSEGLIPPTIRFYGWNPPTLSIGYFQKVQKEINMEMVEKHQLGFVRRPTGGRGVLHDKELTYSVIVTEEHPDMPASVTEAYRIISQGILEGFRDLGLDAYFAVPKTEEEKNALKNPRSAVCFDAPSWYELVVEGRKVAGSAQTRQKGVILQHGSIVLDIDEDKLFDLFNYPSERVRERMQRNFKNKAVPINELRDVPLSMEEVKKAFKDGFEKGLSIKLEPYTLTDAEEAEVKQIAKERYETDEWNFRK", "not soluble"),
    ("MAHHHHHHMQTLDINNSFAVPFDEDPQDAGVWFFDTNYAQEMFAMHKRVLPKVKVVGWYSSGPTIQPNDMLLHLLVADRFCLNPVYCVVNTDPNNKGVPVRAYTTVQGREGTRSLEFRNIPTHLGAEEAEEIGIEHLLRDLTDSTITTLSTQVQERELSLVHLCKVLQQIEEYLKDVGNAVMPISEDVLEVLQELISLQPEIYARRSSTEMIRHTNDEAIATFLAAIARCIGALHGVIMNRRKLARELQEIKDRRARAAETRLENEKMKIEEAAKEKDTNQA", "soluble"),
    ("MSLTPATETVSPISQWYDMMTRMFPDQRLTFLNYGYLAQDSDFDWINDADLEQKCSVNLIRTLLGDSDLRGKKVLEIGSGRGGNCSYLARYTGAASVTGLDFCPAHIELCNRVHALPGLSFVGGDAMALPFADNEFDVVINIESSHCYPDLNTFGAEVQRVLKQDGRFFYADTMKGDNTSALSEPDSIGVDFFSNVLAQHQAMIEHARFKVEEHRDISDGVIRAFESQDGHLKHLLRSLVEEKKQQREPLPPEVWHAFDTMFHFFDDSGIKAYKNGHLAYKFWRLQKAAEGHHHHHH", "not soluble"),
    ("EGVAVMLFYSVGELFQDKAIDKAKRNISALLDVRPEKAVVVRSNEIVTVDPRSVLINEIIEIKAGERVPLDGVMLDEVAAFNTAALTGESVPRDISRGEEVLAGMIVTDKVIRMKVTKPFDKSALARILELVE", "not soluble"),
    ("EKMTRDEIAYMLTNSEETLDADEIEMLQGVFSLDELMAREVMVPRTDAFMVDIQDDSQAIIQSILKQNYSRIPVYDGDKDNVIGIIHTKSLLKAGFVDGFDNIVWKRILQDPLFVPETIFVDDLLKELRNTQRQMAILLDEYGGMAGLVTLEDLLEEIVGEID", "not soluble"),
]

----------
test: soluble on expression in E. coli; label from the status in PepcDB or PDB records
measuredEndpoint: soluble on expression in E. coli

# monomerSequence, reportedMeasurement
rows = [
    ("MGSDKIHHHHHHMRWNRMNPFGSYKKVVSARSTLKEVLKKAQDGGIVSTAFIYGLENNLLDGVIVADNAGEFKAVPKVATTPEEVLEAAGTKYTVCPNISVLKSAVREYGCEKIGVVGTPCQVRAVRKLMKYPVGFRHVPDKIALIIGIFCMENFPYYGLKLIVEEHCGVKMEDVVKMDIGKGKFWVYTRWGETKAIKLKETHPYEQIACHVCTDYTAELADISTGSVGSPDGWSTVFIRTAKGEEIFNKMVEDGYLEVKPIEEVKPGLGLVEKLALQKKEKNMKEIEHRKELGLPIPY", "not soluble"),
    ("ALGAPDGVTQGASLSRSIQPLLDAHPGKTGLHVLEKGEESLLARAWLADHATETIDVQYFIWSTDNIGILASEALLRAAERGVRVRVLVDDLLIDAPPESLLALARHPRIDIRIYNPTMTVGTSKVKRLGNVVTGFRSVNQRMHDKTALFDGVVGITGGRNMADEYYDYDQEYTFRDRDILMLGPAVAEAEASFARFWESPLAVPVEKLLKKGMKKMT", "not soluble"),
    ("MGSDKIHHHHHHMFERSDETLIAQALKGKKSAWLTLVKRYEKNLYNYALRMVNNPADAMDLMQDIFIALFRNLSKFRGECPFKNWLFKIAHYRCLEYYRRKRPMQSLDDVPEQEDEESVCLEKNLQIQQQSSALLEAMQHLPVKQKLVVELKFFQQCTFEDISQQLGISTNTAKSQLYSALDKLKLHLVDDQIIKVGVEYV", "not soluble"),
]
